Target under test: SpsB (Staphylococcus aureus signal peptidase) (Staphylococcus aureus)
Construct: This assay uses a suspension of Staphylococcus aureus cells as a source of SpsB instead of recombinant SpsB protein; endogenous in cells; host or cells: S. aureus, USA300 background, overexpressing SpsB (whole-cell suspension from frozen pellets)
Experiment: cell-based
Type: biochemical
Test conditions: SpsB IC50, whole-cell S. aureus (USA300 background, overexpressing SpsB) as SpsB source; fluorogenic peptide substrate, kinetic read 30 min
Classification field. Basis: IC50. Definitions: low interval = under 0.7 nM, middle interval = from 0.7 nM up to 2 nM, high interval = 2 nM and over

Please report the category associated with CCCCCCCCCCCC(=O)N[C@@H](CCO)C(=O)N(C)[C@@H]1C(=O)N[C@@H](C)C(=O)N[C@H](C(=O)NCC#N)Cc2ccc(OCCN)c(c2)-c2cc1ccc2OCCN [Compound 257] , nothing else.
middle interval

Let us now turn to CCCCc1ccc(C(=O)N[C@@H](CCCN)C(=O)N(C)[C@@H]2C(=O)N[C@@H](C)C(=O)N[C@H](C(=O)NCC#N)Cc3ccc(OCCN)c(c3)-c3cc2ccc3OCCN)cc1 [Compound 127]
high interval

Lookup CCCCCCCCC(=O)N[C@@H](CCN)C(=O)N(C)[C@@H]1C(=O)N[C@@H](C)C(=O)N[C@H](C(=O)NCC#N)Cc2ccc(OCCN)c(c2)-c2cc1ccc2OCCN [Compound 106]
middle interval

CCCCCCCCc1ccc(C(=O)N[C@@H](CCN)C(=O)N(C)[C@@H]2C(=O)N[C@@H](C)C(=O)N[C@H](C(=O)NCC#N)Cc3ccc(OCCN)c(c3)-c3cc2ccc3OCCN)c(S(C)(=O)=O)c1 [Compound 212] , same question.
low interval

Try CCCCCCCCCCCC(=O)N[C@@H](CCCCN)C(=O)N(C)[C@@H]1C(=O)N[C@@H](C)C(=O)N[C@H](C(=O)NCC#N)Cc2ccc(O)c(c2)-c2cc1ccc2O [Compound 468] next.
high interval

// next record CCCCCCCCCCNCCC(=O)N(C)[C@@H]1C(=O)N[C@@H](C)C(=O)N[C@H](C(=O)NCC#N)Cc2ccc(OCCN)c(c2)-c2cc1ccc2OCCN [Compound 131]
middle interval

Record: CCCCCCCCCCNCCC(=O)N[C@@H](CCN)C(=O)N(C)[C@@H]1C(=O)N[C@@H](C)C(=O)N[C@H](C(=O)NCC#N)Cc2ccc(OCCN)c(c2)-c2cc1ccc2OCCN [Compound 129]
low interval

Please give the result for CCCCCCCCc1ccc(C(=O)N[C@@H](CCCN)C(=O)N(C)[C@@H]2C(=O)N[C@@H](C)C(=O)N[C@H](C(=O)NCC#N)Cc3ccc(OC)c(c3)-c3cc2ccc3OC)cc1 [Compound 471] too.
high interval

Try CCCCCCCCCCCC(=O)N[C@@H](CCN)C(=O)N(C)[C@@H]1C(=O)N[C@@H](C)C(=O)N[C@H](C(=O)NCC#N)Cc2ccc(OCCN)c(c2)-c2cc1ccc2OCCN [Compound 103] next.
low interval

# repeat for CCCCCCCCCCCC(=O)N[C@@H](CO)C(=O)N[C@@H](CCN)C(=O)N(C)[C@@H]1C(=O)N[C@@H](C)C(=O)N[C@H](C(=O)NCC#N)Cc2ccc(OCCN)c(c2)-c2cc1ccc2OCCN [Compound 384]
middle interval

Try CCCCCCCCCCCCC(=O)N[C@@H](CCN)C(=O)N(C)[C@@H]1C(=O)N[C@@H](C)C(=O)N[C@H](C(=O)NCC#N)Cc2ccc(OCCN)c(c2)-c2cc1ccc2OCCN [Compound 102] next.
low interval

Entry CCCCCOc1ccc(C(=O)N[C@@H](CCN)C(=O)N(C)[C@@H]2C(=O)N[C@@H](C)C(=O)N[C@H](C(=O)NCC#N)Cc3ccc(OCCN)c(c3)-c3cc2ccc3OCCN)c(Cl)c1 [Compound 270] please
middle interval

Input CCCCCCCCCCCC(=O)N[C@@H](CO)C(=O)N(C)[C@@H]1C(=O)N[C@@H](C)C(=O)N[C@H](C(=O)NCC#N)Cc2ccc(OCCN)c(c2)-c2cc1ccc2OCCN [Compound 231]
low interval

###

Test system: Methicillin Resistant Staphylococcus aureus strain USA 300, NRS384
Experiment: Minimum inhibitory concentration, broth micro-dilution (CLSI), S. aureus
Assay type: cell-based
Test conditions: Staphylococcus aureus, MRSA / NRS 384 / USA300, 22 h, MRSA USA 300 NRS384; 35° C., 22 hours; read-out: MIC (μg/mL) S. aureus
Quantity: MIC
Write down the value, and be sure its unit follows.

Consider the compound shown here: Cc1cc(C2CC2)ccc1C(=O)N[C@@H](CCN)C(=O)N(C)[C@@H]1C(=O)N[C@@H](C)C(=O)N[C@H](C(=O)NCC#N)Cc2ccc(OCCN)c(c2)-c2cc1ccc2OCCN What is its recorded MIC?
1 µg/mL

Next record, please: CCCCc1ccc(-c2ccc(C(=O)N[C@@H](CCCCN)C(=O)N(C)[C@@H]3C(=O)N[C@@H](C)C(=O)N[C@H](C(=O)NC(C)(C)C#N)Cc4ccc(OCCN)c(c4)-c4cc3ccc4OCCN)cc2)cc1
3 µg/mL

Then CCCCCCCc1cc(C)c(C(=O)N[C@@H](CCN)C(=O)N(C)[C@@H]2C(=O)N[C@@H](C)C(=O)N[C@H](C(=O)NCC#N)Cc3ccc(OCCN)c(c3)-c3cc2ccc3OCCN)cn1 ?
0.031 µg/mL

Next compound up: CCc1ccc(-c2ncc(C(=O)N[C@@H](CCN)C(=O)N(C)[C@@H]3C(=O)N[C@@H](C)C(=O)N[C@H](C(=O)NCC#N)Cc4ccc(O)c(c4)-c4cc3ccc4OCCN)c(C)n2)cc1
0.25 µg/mL

Next entry: CCCCCCOCc1ccc(C(=O)N[C@@H](CCN)C(=O)N(C)[C@@H]2C(=O)N[C@@H](C)C(=O)N[C@H](C(=O)NCC#N)Cc3ccc(OCCN)c(c3)-c3cc2ccc3OCCN)c(Cl)c1
0.063 µg/mL

Follow-up item: Cc1cc(-c2ccc(C(C)C)cc2)ccc1C(=O)N[C@@H](CCN)C(=O)N(C)[C@@H]1C(=O)N[C@@H](C)C(=O)N[C@H](C(=O)NCC#N)Cc2ccc(OCCN)c(c2)-c2cc1ccc2OCCN
0.047 µg/mL

How about CCCCCCCCCCCCCC(=O)N[C@@H](CC)C(=O)N(C)[C@@H]1C(=O)N[C@@H](C)C(=O)N[C@H](C(=O)NCC#N)Cc2ccc(OCCN)c(c2)-c2cc1ccc2OCCN ?
0.094 µg/mL

Okay, and CCCCCCCCc1ccc(C(=O)N[C@@H](CCN)C(=O)N(C)[C@@H]2C(=O)N[C@@H](C)C(=O)N[C@H](C(=O)NCC#N)Cc3ccc(OCCN)c(c3)-c3cc2ccc3OCCN)c(S(C)(=O)=O)c1 ?
0.031 µg/mL

Next up: CCCCC1CCC(C2CCC(C(=O)N[C@@H](CCN)C(=O)N(C)[C@@H]3C(=O)N[C@@H](C)C(=O)N[C@H](C(=O)NCC#N)Cc4ccc(OCCN)c(c4)-c4cc3ccc4OCCN)CC2)CC1 (some centres unmarked)
0.063 µg/mL

And for CCCCCCCCc1ccc(C(=O)N[C@@H](C)C(=O)N(C)[C@@H]2C(=O)N[C@@H](C)C(=O)N[C@H](C(=O)NCC#N)Cc3ccc(OCCN)c(c3)-c3cc2ccc3OCCN)c(C)c1 ?
0.094 µg/mL

Also CCCCCCCCCCNCCS(=O)(=O)N[C@@H](CCN)C(=O)N(C)[C@@H]1C(=O)N[C@@H](C)C(=O)N[C@H](C(=O)NCC#N)Cc2ccc(OCCN)c(c2)-c2cc1ccc2OCCN , if possible.
0.016 µg/mL

###

Target under test: SpsB (Staphylococcus aureus signal peptidase) (Staphylococcus aureus, UniProt P0A070)
Construct: This assay uses a suspension of Staphylococcus aureus cells as a source of SpsB instead of recombinant SpsB protein; endogenous in cells; host or cells: S. aureus, USA300 background, overexpressing SpsB (whole-cell suspension from frozen pellets)
Sequence (P0A070 whole entry): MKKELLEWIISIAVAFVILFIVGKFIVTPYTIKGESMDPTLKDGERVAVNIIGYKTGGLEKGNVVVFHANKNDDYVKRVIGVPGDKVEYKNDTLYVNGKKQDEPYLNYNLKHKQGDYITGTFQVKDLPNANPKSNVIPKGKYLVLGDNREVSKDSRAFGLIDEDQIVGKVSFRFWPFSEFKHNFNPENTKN
Experiment: cell-based
Format: biochemical
Test conditions: SpsB IC50, whole-cell S. aureus (USA300 background, overexpressing SpsB) as SpsB source; fluorogenic peptide substrate, kinetic read 30 min
Quantity: pIC50
// pIC50 here means minus log10 of the molar concentration (mol/L)

I have this compound here, CCCCCCCCCCCC(=O)N[C@@H](CO)C(=O)N(C)[C@@H]1C(=O)N[C@@H](C)C(=O)N[C@H](C(=O)N[C@H](C#N)C2CC2)Cc2ccc(OCCN)c(c2)-c2cc1ccc2OCCN , and I need its recorded pIC50.
8.08

How about CCCCCCCCCC(=O)N[C@H](CCO)C(=O)N[C@@H](CCN)C(=O)N(C)[C@@H]1C(=O)N[C@@H](C)C(=O)N[C@H](C(=O)NCC#N)Cc2ccc(OCCN)c(c2)-c2cc1ccc2OCCN ?
9.05

Another compound to look at: CCC(C)(C)c1ccc(C(=O)N[C@@H](CCN)C(=O)N(C)[C@@H]2C(=O)N[C@@H](C)C(=O)N[C@H](C(=O)NCC#N)Cc3ccc(OCCN)c(c3)-c3cc2ccc3OCCN)c(C)c1
9.05

Next up: Cc1cc(Oc2ccc(C(C)(C)C)cc2)ccc1C(=O)N[C@@H](CCN)C(=O)N(C)[C@@H]1C(=O)N[C@@H](C)C(=O)N[C@H](C(=O)NCC#N)Cc2ccc(OCCN)c(c2)-c2cc1ccc2OCCN
9.10

Note, next up: CCCCCCCCCC(=O)NCCC(=O)N[C@@H](CCN)C(=O)N(C)[C@@H]1C(=O)N[C@@H](C)C(=O)N[C@H](C(=O)NCC#N)Cc2ccc(OCCN)c(c2)-c2cc1ccc2OCCN
9.06
